Published Ki for UniProt:P03951, assembled from different documents, is shown next.
Measurement Kind: Ki (nM)

P: COC(=O)Nc1ccc2c(c1)NC(=O)C[C@@H](C)CCC[C@H](NC(=O)/C=C/c1cc(Cl)ccc1-n1cnnn1)c1nc-2c(Cl)[nH]1
Q: COC(=O)Nc1ccc(-c2cncc([C@H](Cc3ccccc3)NC(=O)[C@H]3CC[C@H](CN)CC3)c2)cc1
R: COC(=O)Nc1ccc2c(c1)NC(=O)[C@H](C)CCC[C@H](N1CCN(c3c(F)ccc(Cl)c3F)C(=O)C1=O)c1cc-2ccn1
S: CNc1cc(-c2ccccc2)cc(C(Cc2ccccc2)NC(=O)[C@H]2CC[C@H](CN)CC2)n1 (mixture of isomers)
Using measured Ki, arrange the compounds from above in descending sequence. Show the ranking through the labels, in the order asked for.
S, R, Q, P
(S: 860 nM, R: 14 nM, Q: 8.4 nM, P: 0.06 nM)

1: COC(=O)Nc1ccc(-c2cc([C@H](Cc3ccccc3)NC(=O)/C=C/c3cc(Cl)ccc3-n3cnnn3)[nH]c(=O)c2)cc1
2: NC[C@H]1CC[C@H](C(=O)NC(Cc2ccccc2)c2cc(-c3ccccc3)cc(Cl)n2)CC1 (mixture of isomers)
3: COC(=O)Nc1ccc(-c2cc([C@H](Cc3ccccc3)NC(=O)[C@H]3CC[C@H](CN)CC3)ccn2)cc1
4: CC1(c2ccccc2)CC(c2cccc(-c3ccc(C(N)=O)cc3C(=O)O)c2)Nc2ccc(C(=N)N)cc21 (single isomer, unassigned; (+))
5: CC[C@H](C)[C@H](NS(=O)(=O)Cc1cccc(C(=O)O)c1)C(=O)N[C@@H](CCSC)C(=O)NCc1ccc(C(=N)N)cc1
Order each entry by recorded Ki, climbing from the minimum. Show the ranking through the labels, in the order asked for.
4, 1, 3, 5, 2

P: COC(=O)Nc1ccc2c(c1)NC(=O)C(C)CCCC[C@H](NC(=O)/C=C/c1cc(Cl)ccc1-n1cnnn1)c1nc-2c[nH]1 (single isomer, unassigned; diastereomer A)
Q: C[C@]1(c2ccccc2)C[C@@H](c2cccc(-c3ccccc3C(=O)O)c2)Nc2ccc(C(=N)N)cc21 (racemic)
R: COC(=O)Nc1ccc2c(c1)NC(=O)[C@H](C)CCC[C@H](N1CC[C@H](c3c(F)ccc(Cl)c3F)OC1=O)c1ccnc-2c1
Order each entry by recorded Ki, climbing from the minimum. Show the ranking through the labels, in the order asked for.
R, P, Q
(R: 1.6 nM, P: 6.5 nM, Q: 110 nM)
